Test system: PPARg DBDmut IVT, anti-PPARg (DBD mutation: PPARg1 K132A/R137A, NR concentration 270 nM)
Test: PBM binding z-score (relative to random genomic background probes); higher = stronger binding; sequences stand for … in GC…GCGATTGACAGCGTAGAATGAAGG
Tag: Y if measured PBM binding z-score is not below -0.08, N if it is.

1) CAAACTAGGTCACGAACGGTCAAAGTCGAATGAC : Y
2) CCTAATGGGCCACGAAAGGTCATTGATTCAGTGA : Y

Decide: PBM binding z-score of GCGACTGGGACAAAGCAGGTTACCATAAGGTTGG >= -0.08?
N

Decide: PBM binding z-score of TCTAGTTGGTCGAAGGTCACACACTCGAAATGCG >= -0.08?
Y

Decide: PBM binding z-score of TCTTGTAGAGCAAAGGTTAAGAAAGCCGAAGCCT >= -0.08?
N

Decide: PBM binding z-score of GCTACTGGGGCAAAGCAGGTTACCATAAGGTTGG >= -0.08?
N

Decide: PBM binding z-score of CCTGGTAGGTCATGGTCAGCTAATCTACAGTATG >= -0.08?
Y

Decide: PBM binding z-score of ATCGAAAGGTCGAGGGTGAGTATACCCACCCGAA >= -0.08?
Y

Decide: PBM binding z-score of ATGTCTAGGTAACAAGTTCAGTGAAAGAGAGGAC >= -0.08?
Y

Decide: PBM binding z-score of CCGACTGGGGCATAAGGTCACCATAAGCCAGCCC >= -0.08?
Y

---

Tested on: PXR:RXRa (NR concentration 270 nM, RXRa partner concentration 90 nM)
Test: PBM binding z-score (relative to random genomic background probes); higher = stronger binding; sequences stand for … in GC…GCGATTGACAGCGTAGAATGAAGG
# maps each entry to its PBM binding z-score
Quick one: just the number, no unit, thanks!

1) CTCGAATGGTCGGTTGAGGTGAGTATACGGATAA : -0.105
2) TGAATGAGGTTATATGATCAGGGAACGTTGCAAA : 1.04
3) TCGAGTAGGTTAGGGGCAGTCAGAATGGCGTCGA : 0.184

Provide PBM binding z-score, system PXR:RXRa (NR concentration 270 nM, RXRa partner concentration 90 nM), entry TCTTGTAGATGAACAGGAGGTTAAGAAAGATCGA
0.598

Provide PBM binding z-score, system PXR:RXRa (NR concentration 270 nM, RXRa partner concentration 90 nM), entry GATACAGGGTCAGCTAGAGGCCACAGTATGGAAA
3.94

Provide PBM binding z-score, system PXR:RXRa (NR concentration 270 nM, RXRa partner concentration 90 nM), entry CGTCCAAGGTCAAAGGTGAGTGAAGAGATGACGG
5.5

Provide PBM binding z-score, system PXR:RXRa (NR concentration 270 nM, RXRa partner concentration 90 nM), entry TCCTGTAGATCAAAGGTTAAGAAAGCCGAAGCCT
1.72

Provide PBM binding z-score, system PXR:RXRa (NR concentration 270 nM, RXRa partner concentration 90 nM), entry ATCTCTAGCTAACCAAGTTCAGTGAATGCCGAAC
1.32

Provide PBM binding z-score, system PXR:RXRa (NR concentration 270 nM, RXRa partner concentration 90 nM), entry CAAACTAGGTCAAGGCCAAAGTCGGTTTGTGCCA
1.8

Provide PBM binding z-score, system PXR:RXRa (NR concentration 270 nM, RXRa partner concentration 90 nM), entry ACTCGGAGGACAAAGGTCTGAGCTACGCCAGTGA
-0.428
